- Test system: SW-620
- ASSAY NOTES: Inhibitory concentration against SW 620 human colon carcinoma cell line
- Type: functional, cell-based
- CONDITION LABEL: Homo sapiens, SW-620
Entries and their IC50 values follow.
RECORDED ENDPOINT: IC50 (nM)

compound="O=C1C2=C(C(=O)c3ccccc31)C1(CS2)NC(=O)N(CCCO)C1=O (configuration not stated)" recorded_endpoint=IC50 reported_measurement=119
compound="CN1C(=O)NC2(CSC3=C2C(=O)c2ccccc2C3=O)C1=O (configuration not stated)" recorded_endpoint=IC50 reported_measurement=108
compound="O=C1C2=C(C(=O)c3ccccc31)C1(CS2)NC(=O)N(CCO)C1=O (configuration not stated)" recorded_endpoint=IC50 reported_measurement=198
compound="CCN(CC)CCCN1C(=O)NC2(CSC3=C2C(=O)c2ccccc2C3=O)C1=O (configuration not stated)" recorded_endpoint=IC50 reported_measurement=54
compound="NCCN1C(=O)NC2(CSC3=C2C(=O)c2ccccc2C3=O)C1=O (stereo in doubt; 11)" recorded_endpoint=IC50 reported_measurement=35
compound="CCN1C(=O)NC2(CSC3=C2C(=O)c2ccccc2C3=O)C1=O (configuration not stated)" recorded_endpoint=IC50 reported_measurement=203
compound="CCCN1C(=O)NC2(CSC3=C2C(=O)c2ccccc2C3=O)C1=O (configuration not stated)" recorded_endpoint=IC50 reported_measurement=379

* * *

- Test system: MCF7
- ASSAY NOTES: Inhibitory concentration against MCF-7 human breast carcinoma cell line
- Assay type: functional, cell-based
- CONDITION LABEL: mcf7
Entries and their IC50 values follow.
RECORDED ENDPOINT: IC50 (µM)

compound="NCCN1C(=O)NC2(CSC3=C2C(=O)c2ccccc2C3=O)C1=O (stereo in doubt; (-)-11)" recorded_endpoint=IC50 reported_measurement=0.031
compound="NCCN1C(=O)NC2(CSC3=C2C(=O)c2ccccc2C3=O)C1=O (single isomer, unassigned; (+))" recorded_endpoint=IC50 reported_measurement=0.02
compound="CN(C)CCCN1C(=O)NC2(CSC3=C2C(=O)c2ccccc2C3=O)C1=O (stereo in doubt; (-)-15)" recorded_endpoint=IC50 reported_measurement=0.027

* * *

- Test system: SW-620
- ASSAY NOTES: Inhibitory concentration against SW 620 human colon carcinoma cell line
- Assay type: functional, cell-based
- CONDITION LABEL: Homo sapiens, SW-620
pIC50: −log10 of the molar value.
Lab note: anything with pIC50 at or over 7 counts as 1; the rest go in -1.

molecule="CN(C)CCCN1C(=O)NC2(CSC3=C2C(=O)c2ccccc2C3=O)C1=O (stereo in doubt; 15)" measured_target=SW-620 label_value=1
molecule="CCC(C)N1C(=O)NC2(CSC3=C2C(=O)c2ccccc2C3=O)C1=O (centres undefined)" measured_target=SW-620 label_value=-1
molecule=COc1cccc2c1C(=O)c1c(O)c3c(c(O)c1C2=O)C[C@@](O)(C(=O)CO)C[C@@H]3O[C@H]1C[C@H](N)[C@H](O)[C@H](C)O1 measured_target=SW-620 label_value=-1
molecule="CCCCN1C(=O)NC2(CSC3=C2C(=O)c2ccccc2C3=O)C1=O (centres undefined)" measured_target=SW-620 label_value=-1
molecule="CC(C)(C)N1C(=O)NC2(CSC3=C2C(=O)c2ccccc2C3=O)C1=O (centres undefined)" measured_target=SW-620 label_value=-1
molecule="NCCCN1C(=O)NC2(CSC3=C2C(=O)c2ccccc2C3=O)C1=O (centres undefined)" measured_target=SW-620 label_value=1
molecule="CCN(CC)CCN1C(=O)NC2(CSC3=C2C(=O)c2ccccc2C3=O)C1=O (centres undefined)" measured_target=SW-620 label_value=1
molecule="CN(C)CCN1C(=O)NC2(CSC3=C2C(=O)c2ccccc2C3=O)C1=O (centres undefined)" measured_target=SW-620 label_value=1
